assay: amyloid nucleation score (Sup35N fusion, yeast selection) (log enrichment); library NNK2; higher = more nucleation; inactive = no reads after selection;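 note: zero at mode of non-aggregating sequences after 7 days selection at 30°C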
quantity-name: amyloid nucleation score

{"columns": ["entry-sequence", "quantity-name", "value-measured"],
 "data": [
  ["VMFWLPPTSGNSWSDCTHKI", "amyloid nucleation score", "inactive"],
  ["YRGINGTTGFQLWAPA", "amyloid nucleation score", "inactive"],
  ["YGTKQVGKNRFFEHSYYYWP", "amyloid nucleation score", "inactive"],
  ["YLWWMKSNY", "amyloid nucleation score", "inactive"],
  ["IHKAGFKDKGC", "amyloid nucleation score", "inactive"],
  ["CRGTIWIAYSRYYYYRMNDF", "amyloid nucleation score", "inactive"],
  ["ETHIITCLRYRRRMARPHRY", "amyloid nucleation score", "inactive"],
  ["YSCQFFCSVLLCLYVSHITN", "amyloid nucleation score", "inactive"],
  ["KRVFKLSESTTRVIMWGRYS", "amyloid nucleation score", "inactive"]
]}

# credit: the supplement of paper PMC12042874
